Test Protocol: Half life in rat liver microsomes
Type: ADME
Recorded measurements of half-life, one per entry
Provide the reading as a plain figure in min.

| Smiles Input | half-life [min] |
| --- | --- |
| C[C@@H](Oc1cc(-c2cnn(C)c2)cc2nscc12)[C@H]1CNC(=O)C1 | 34 |

Now consider the entry below.
Req: Looking for the measured half-life of C[C@@H](Oc1nc(-c2cnn(C)c2)cc2nscc12)[C@H]1CNC(=O)C1 , can you help?
Resp: 34

###

Test Protocol: Mean residence time in Sprague-Dawley rat at 1 mg/kg, iv and 3 mg/kg, po administered as cassette dosing
Format: ADME, organism-based
Condition Set: in vivo
Recorded measurements of MRT, one per entry
Provide the reading as a plain figure in h.

| Smiles Input | MRT / h |
| --- | --- |
| C[C@@H](Oc1nc(-c2cnn(C(F)F)c2)cc2ncsc12)[C@H]1CNC(=O)O1 | 6 |
| C[C@@H](Oc1cc(-c2cnn(C)c2)cc2nscc12)[C@H]1CNC(=O)O1 | 2 |
| C[C@@H](Oc1nc(-c2cnn(C)c2)cc2nscc12)[C@H]1CNC(=O)C1 | 0.5 |

Now consider the entry below.
Req: Looking for the measured MRT of C[C@@H](Oc1nc(-c2cnn(C)c2)cc2ncsc12)[C@H]1CNC(=O)C1 , can you help?
Resp: 0.7
